Biological target: Human plasma kallikrein (Homo sapiens)
Construct: yields a heavy chain (371 amino acids) and a light chain (248 amino acids)
Sequence (P03952 391-638 limits assumed): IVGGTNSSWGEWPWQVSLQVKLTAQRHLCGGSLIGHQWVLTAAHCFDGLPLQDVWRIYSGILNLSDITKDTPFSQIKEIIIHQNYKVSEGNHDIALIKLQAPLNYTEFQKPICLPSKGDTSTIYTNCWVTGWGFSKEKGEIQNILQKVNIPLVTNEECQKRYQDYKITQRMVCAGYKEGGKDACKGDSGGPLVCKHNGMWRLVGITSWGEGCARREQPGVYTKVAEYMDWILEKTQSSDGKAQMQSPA
Sequence (P03952 20-390 partner limits assumed): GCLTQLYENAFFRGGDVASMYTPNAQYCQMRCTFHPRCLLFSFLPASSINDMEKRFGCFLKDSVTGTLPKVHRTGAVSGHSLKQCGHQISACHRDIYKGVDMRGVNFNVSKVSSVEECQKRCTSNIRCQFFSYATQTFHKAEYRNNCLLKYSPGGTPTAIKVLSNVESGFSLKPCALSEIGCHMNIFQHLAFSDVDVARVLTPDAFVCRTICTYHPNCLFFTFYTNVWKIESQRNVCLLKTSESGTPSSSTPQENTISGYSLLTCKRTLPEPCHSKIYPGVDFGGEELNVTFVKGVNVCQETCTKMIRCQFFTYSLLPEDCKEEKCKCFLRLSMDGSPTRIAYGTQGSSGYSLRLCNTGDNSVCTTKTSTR
Experiment: Kallikrein Assay (fluorogenic substrate hydrolysis, AFC release)
Settings: purified Human plasma kallikrein 0.5 nM; substrate Acetyl-K—P—R-AFC 100 mM; 50 mM HEPES pH 7.4
Protocol: The effectiveness of a compound of the present invention as an inhibitor of Kallikrein can be determined using a relevant purified serine protease, and an appropriate synthetic substrate. The rate of hydrolysis of the chromogenic or fluorogenic substrate by the relevant serine protease was measured both in the absence and presence of compounds of the present invention. […] A decrease in the rate of fluorescence change in the presence of inhibitor is indicative of enzyme inhibition. […]
pIC50: −log10 of the molar value.
Output schema: class label derived from pIC50. Mapping: bottom (below 7), middle (7 to below 8), top (8 or more)

{"compound": "CC(c1ncc(N2C[C@H]3C[C@H]3C2=O)cc1F)n1cc(C(=O)N[C@H]2C[C@@H](c3cc(Cl)ccc3C#N)C2)nn1 (single isomer, unassigned) [Example 92]", "group": "middle"}
{"compound": "Cc1c([C@H](C)n2cc(C(=O)N[C@H]3C[C@@H](c4cc(Cl)ccc4C#N)C3)nn2)cnc(N2C[C@H]3C[C@H]3C2=O)c1O (relative stereo)", "group": "middle"}
{"compound": "Cc1cc(N2C[C@H]3C[C@H]3C2=O)ncc1[C@H](C)n1cc(C(=O)N[C@H]2C[C@@](C)(c3cc(Cl)ccc3C(N)=O)C2)nn1", "group": "top"}
{"compound": "Cc1c([C@H](C)n2cc(C(=O)N[C@H]3C[C@@](C)(c4cc(Cl)ccc4C(N)=O)C3)nn2)cnc(N2C[C@H]3C[C@H]3C2=O)c1C", "group": "top"}
{"compound": "Cc1cc(N2C[C@H]3C[C@H]3C2=O)ncc1C(C)n1cc(C(=O)N[C@@H]2CC[C@H](c3cc(Cl)ccc3C#N)C2)nn1 (single isomer, unassigned) [Example 62]", "group": "bottom"}
{"compound": "Cc1nc(N2C[C@H]3C[C@H]3C2=O)ccc1C(C)n1cc(C(=O)N[C@H]2C[C@@H](c3cc(Cl)ccc3C#N)C2)nn1 (single isomer, unassigned) [Example 94]", "group": "bottom"}

From here, focus on the item given below.
Challenge: Which of the defined bands does the recorded pIC50 of Cc1c(C(C)n2cc(C(=O)N[C@H]3C[C@@H](c4cc(Cl)ccc4C#N)C3)nn2)cnc(N2C[C@H]3C[C@H]3C2=O)c1C (single isomer, unassigned) [Example 87] sit within?
Response given: top

These data points were gathered from patent US12528786B2.
